Field: viability, T/C. Provide a value for each of the compounds that follow.
- Tested on: 242566-281-R-J2-PDC complex spheroid viability;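 also: spheroids exposed to compound for 7 days before readout; 100% = DMSO vehicle control wells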
- TEST_SUMMARY: Anticancer human tumor 242566-281-R-J2-PDC patient-derived pancreatic carcinoma cell line growth inhibition [RAS]
- CONDITION_LABEL: second compound 0.00949 µM; first compound 0.0316 µM; active compounds read low
- Source text: RAS pathway inhibitors in Combinations in Complex Spheroids A high-throughput screen of multi-cell type tumor spheroids was designed to identify active combinations of RAS pathway inhibitors and targeted small molecules. Complex spheroids include a stromal component modeled by human endothelial cells (HUVEC) and fibroblasts modeled by human mesenchymal stem cells (MSCs). […] Compounds. […] If the clinical Cmax for an agent had not been determined, the highest concentration tested was 10 microM. […]
One number for each entry, in %.

Task: Report viability, T/C for CC(Nc1ccc2c(c1)OCCn1cc(N3C(=O)OCC3C(F)F)nc1-2)C(N)=O (configuration not stated) + CCn1c(-c2cc(N3CCN(C)CC3)cnc2C(C)OC)c2c3cc(ccc31)-c1csc(n1)CC(NC(=O)C1CC1C)C(=O)N1CCCC(N1)C(=O)OCC(C)(C)C2 please.
Result: 40.7

Task: Also CC1(O)CCCC1n1c(=O)c(C(F)F)cc2cnc(NC3CCN(S(C)(=O)=O)CC3)nc21 (configuration not stated) + CCn1c(-c2cccnc2C(C)OC)c2c3cc(ccc31)N1CCOC(CC(NC(=O)C(C(C)C)N(C)C(=O)C3(F)CCN(C(=O)C#CC(C)(C)N(C)C)CC3)C(=O)N3CCCC(N3)C(=O)OCC(C)(C)C2)C1 ?
Result: 84.6

Task: Another compound: Nc1ccn(C2OC(CO)C(O)C2(F)F)c(=O)n1 (configuration not stated) + CCn1c(-c2cc(N3CCN(C)CC3)cnc2C(C)OC)c2c3cc(ccc31)-c1csc(n1)CC(NC(=O)C1CC1C)C(=O)N1CCCC(N1)C(=O)OCC(C)(C)C2
Result: 38.3

// for each compound below, give its viability, T/C
1. C=CC(=O)Nc1cc(Nc2nccc(-c3cn(C)c4ccccc34)n2)c(OC)cc1N(C)CCN(C)C + CCn1c(-c2cc(N3CCN(C)CC3)cnc2C(C)OC)c2c3cc(ccc31)-c1csc(n1)CC(NC(=O)C1CC1C)C(=O)N1CCCC(N1)C(=O)OCC(C)(C)C2
2. O=C(c1ccc(F)c(F)c1Nc1ccc(I)cc1F)N1CC(O)([C@@H]2CCCCN2)C1 + CCn1c(-c2cc(N3CCN(C)CC3)cnc2C(C)OC)c2c3cc(ccc31)-c1csc(n1)CC(NC(=O)C1CC1C)C(=O)N1CCCC(N1)C(=O)OCC(C)(C)C2
3. Cc1nc(N2CCC3(CC2)COC(C)C3N)c(CO)nc1Sc1ccnc(N)c1Cl (configuration not stated) + CCn1c(-c2cccnc2C(C)OC)c2c3cc(ccc31)N1CCOC(CC(NC(=O)C(C(C)C)N(C)C(=O)C3(F)CCN(C(=O)C#CC(C)(C)N(C)C)CC3)C(=O)N3CCCC(N3)C(=O)OCC(C)(C)C2)C1
4. NC1c2ccccc2OC12CCN(c1cnc3c(N4CCCc5ncccc54)n[nH]c3n1)CC2 (configuration not stated) + CCn1c(-c2cc(N3CCN(C)CC3)cnc2C(C)OC)c2c3cc(ccc31)-c1csc(n1)CC(NC(=O)C1CC1C)C(=O)N1CCCC(N1)C(=O)OCC(C)(C)C2

Result:
1. 41.2
2. 30.6
3. 98.8
4. 31.6

Where these numbers come from: PubChem BioAssay AID2060910
